Values from patent US20210380703A1

- Study Target: Mouse ACVR2A (mouse, UniProt P27038 20-135, limits assumed); note: test concentration or dose not given here
- Sequence (P27038 20-135 limits assumed): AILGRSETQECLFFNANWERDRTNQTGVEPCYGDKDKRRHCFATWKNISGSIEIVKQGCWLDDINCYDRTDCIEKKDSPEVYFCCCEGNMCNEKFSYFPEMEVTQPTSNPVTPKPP
- Protocol Details: ELISA
optical density overview
Entry rule: numbers only, all in OD.

Answered examples (2):
Binder: 367_E04 (antibody, V domains shown) VH: EVQLLESGGGLVQPGGSLRLSCAASGFTFSDYSMNWVRQAPGKGLEWVSSINYNGGYKGYADSVKGRFTISRDNSKNTLYLQMNSLRAEDTAVYYCARSANWHDTHLDYWGQGTLVTVSS VL: DIQMTQSPSSLSASVGDRVTITCRASQSILSYLNWYQQKPGKAPKLLIYAATSRASGVPSRFSGSGSGTDFTLTISSLQPEDFATYYCQQSYESPLTFGGGTKVEIK
optical density, OD: 2.57
--
Binder: 371_C03 (antibody, V domains shown) VH: EVQLLESGGGLVQPGGSLRLSCAASGFTFSSYSMNWVRQAPGKGLEWVSNINYNGGYKGYADSVKGRFTISRDNSKNTLYLQMNSLRAEDTAVYYCARSANWHDTALDYWGQGTLVTVSS VL: DIQMTQSPSSLSASVGDRVTITCRASQSILSYLNWYQQKPGKAPKLVIYATTSRASGVPSRFSGSGSGTDFTLTISSLQPEDFATYYCQQSYSTPLTFGGGTKVEIK
optical density, OD: 3.24

Moving on to another binder below.
So, 368_E06 (antibody, V domains shown) VH: EVQLLESGGGLVQPGGSLRLSCAASGFTFSDYGMHWVRQAPGKGLEWVSGINYNGGYTGYADSVKGRFTISRDNSKNTLYLQMNSLRAEDTAVYYCARSANWHDTALDYWGQGTLVTVSS VL: DIQMTQSPSSLSASVGDRVTITCRASQSILSYLNWYQQKPGKAPKLVIYGATSRASGVPSRFSGSGSGTDFTLTISSLQPEDFATYYCQQSYDSPLTFGGGTKVEIK ? Its optical density was 2.34
